protocol description: chemical genetic growth profiling, strain panel (AID 1159580);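 further: tested at 20 µM; growth read once vehicle control cultures reached saturation at 30 °C; 1 = growth at the plate median or of vehicle wells; lower values mean less growth of the strain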
condition label: S. cerevisiae deletion strains, growth OD, locus YEL061C, strain CIN8 (second series), hits give low values
About 2,000 (36%) of roughly 5,500 compounds were called active. Not shown: some 18% with an inconclusive outcome. The list shows a part of the results.

| structure smiles | normalized growth |
| --- | --- |
| Cc1onc(-c2ccccc2Cl)c1C(=O)N[C@@H]1C(=O)N2[C@@H]1SC(C)(C)[C@@H]2C(=O)O | 1.02 |
| CC(=O)Oc1cccc2c1C(=O)c1c(OC(C)=O)cc(C(=O)O)cc1C2=O | 0.932 |
| COc1ccc2c(=O)ccoc2c1 | 1.02 |
| COc1c2occc2c(OC)c2c(=O)cc(C)oc12 | 0.981 |

----------
Documented normalized growth across a set of compounds
protocol description: chemical genetic growth profiling, strain panel (AID 1159580);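 further: tested at 20 µM; growth read once vehicle control cultures reached saturation at 30 °C; 1 = growth at the plate median or of vehicle wells; lower values mean less growth of the strain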
condition label: S. cerevisiae deletion strains, growth OD, locus YNL071W, strain lat1, hits give low values
Hit rate of the full screen: of about 5,500 compounds, about 2,000 (36%) were called active. About 18% were inconclusive and are not listed. Some of the results follow.

| compound | normalized growth |
| --- | --- |
| COc1cc(NS(=O)(=O)c2ccc(N)cc2)ncn1 | 0.969 |
| C[C@]12CCC3C(CC[C@H]4C[C@H](OS(=O)(=O)O)CC[C@]34C)C1CCC2=O (stereo not given in full) | 1.05 |
| CC(=O)OC1CCC2(C)C3CC(=O)C4(C)C(CC5OC6(CCC(C)CO6)[C@@H](C)C54)C3CC[C@H]2C1 (stereo not given in full) | 1 |
| CC1(C)C=Cc2cc3ccc(=O)oc3cc2O1 | 0.863 |
| CC(=O)O[C@@H]1CC[C@]2(C)C3CC[C@]4(C)C(=O)CCC4C3CC[C@H]2C1 (stereo not given in full) | 0.949 |

----------
protocol description: chemical genetic growth profiling, strain panel (AID 1159580);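 further: tested at 20 µM; growth read once vehicle control cultures reached saturation at 30 °C; 1 = growth at the plate median or of vehicle wells; lower values mean less growth of the strain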
condition label: S. cerevisiae deletion strains, growth OD, locus YDL185W, strain tfp1, hits give low values
The campaign covered roughly 5,500 compounds. About 2,000 (36%) were called active. About 18% were inconclusive and are not listed. This is one part of the list. Where a SMILES comes first, the peptide text is derived from it. Bridges are numbered along the chain shown (N, C = ends). Side-chain parts run from the residue outwards. [ ]: non-standard residue; d: D form. The star is where a group is joined. Octanoyl(6-Me) = CCC(C)CCCCC(=O)*; X1 = CCC(C)C(N)C1=NC(C(=O)*)CS1; Orn = NCCC[CH](N)C(=O)O; Dab = NCC[CH](N)C(=O)O

| compound | normalized growth |
| --- | --- |
| NC[C@H]1O[C@H](O[C@H]2C(O[C@@H]3O[C@H](CO)[C@@H](O)[C@H]3O)[C@@H](O)[C@H](N)C[C@@H]2N)[C@H](N)[C@@H](O)[C@@H]1O (some centres undefined) | 0.983 |
| COc1cc(/C=C/C=O)cc(OC)c1OC | 1 |
| O=c1c(O)c(-c2ccc(O)c(O)c2)oc2cc(O)ccc12 | 0.972 |
| CC1=C(O)C(=O)C=C2C1=CC=C1[C@@]2(C)CC[C@@]2(C)[C@@H]3C[C@](C)(C(=O)O)CC[C@]3(C)CC[C@]12C | 0.943 |
| Cc1c(NC(=O)c2cccnc2)c(=O)n(-c2ccccc2)n1C | 0.983 |
| CC1(C)C(=O)[C@@H]2O[C@@H]2[C@@]2(C)C1CC(=O)[C@]1(C)C2CC[C@@]2(C)[C@H](c3ccoc3)OC(=O)[C@H]3O[C@]321 (some centres undefined) | 0.951 |
| CCC(C)CCCCC(=O)NC(CCN)C(=O)NC(C(=O)NC(CCN)C(=O)NC1CCNC(=O)C(C(C)O)NC(=O)C(CCN)NC(=O)C(CCN)NC(=O)C(CC(C)C)NC(=O)C(Cc2ccccc2)NC(=O)C(CCN)NC1=O)C(C)O (centres undefined) ({Octanoyl(6-Me)}-[Dab]T[Dab][Dab][Dab]FL[Dab][Dab]T; lactam 4-C; configuration not given here) | 1 |
| NC1C[C@H]1c1ccccc1 (some centres undefined) | 0.985 |
| CCN(CC)CCNC(=O)c1cc(Cl)c(N)cc1OC | 0.996 |
| CC(=O)c1cc2c(cc1O)OC(C)(C)C=C2 | 0.993 |
| NC(N)=NC(N)=Nc1ccccc1 | 0.996 |
| CN1CCN(CCCN2c3ccccc3Sc3ccc(C(F)(F)F)cc32)CC1 | 0.936 |
| Cc1ccc(N(CC2=NCCN2)c2cccc(O)c2)cc1 | 1.02 |
| NC[C@H]1O[C@H](O[C@H]2[C@H](O)[C@@H](O[C@H]3O[C@H](CO)[C@@H](O)[C@H](N)[C@H]3O)[C@H](N)C[C@@H]2N)[C@H](N)C[C@@H]1O | 1 |
| Cc1onc(-c2c(Cl)cccc2Cl)c1C(=O)N[C@@H]1C(=O)N2[C@@H]1SC(C)(C)[C@@H]2C(=O)O | 0.991 |
| CN1CCN(CCC=C2c3ccccc3Sc3ccc(S(=O)(=O)N(C)C)cc32)CC1 | 0.989 |
| Cc1cc(C(C)(C)C)cc(C)c1CC1=NCCN1 | 1.01 |
| COc1cccc(OC)c1C(=O)N[C@@H]1C(=O)N2[C@@H]1SC(C)(C)[C@@H]2C(=O)O | 0.967 |
| COc1cc(-c2oc3cc(O)ccc3c(=O)c2O)cc(OC)c1OC | 0.996 |
| COC(=O)[C@]1(C)CC[C@]2(C)CC[C@]3(C)C4=CC=C5C(=CC(=O)C(O)=C5C)[C@]4(C)CC[C@@]3(C)[C@@H]2C1 | 0.91 |
| CC(=O)[O][Hg][c]1ccccc1 | 0.0588 |
| CCC(C)C(N)C1=NC(C(=O)NC(CC(C)C)C(=O)NC(CCC(=O)O)C(=O)NC(C(=O)NCCCCC2NC(=O)C(CC(N)=O)NC(=O)C(CC(=O)O)NC(=O)C(Cc3cnc[nH]3)NC(=O)C(Cc3ccccc3)NC(=O)C(C(C)CC)NC(=O)C(CCCN)NC2=O)C(C)CC)CS1 (stereo not drawn) (cyclo(DNK([Ile-Glu-Leu-X1])[Orn]IFH); configuration not given here) | 1.04 |
| CCOC([O-])=Nc1c[n+](N2CCOCC2)no1 | 0.984 |
| COc1cc2c(cc1OC)[C@@]13CCN4CC5=CCOC6CC(=O)N2C1[C@H]6[C@H]5C[C@H]43 (some centres undefined) | 1 |
| O=C(O)c1cc([N+](=O)[O-])ccc1NCCCc1ccccc1 | 0.868 |
| COC(=O)C[C@H]1C(C)(C)[C@@H](O)[C@@H]2CC3=C4C=C(OC)O[C@@H](c5ccoc5)[C@]4(C)CCC3[C@@]1(C)C2=O (some centres undefined) | 0.982 |
| CO[C@@]1(NC(=O)Cc2cccs2)C(=O)N2C(C(=O)O)=C(COC(N)=O)CS[C@@H]21 | 0.994 |
| CCc1cccc2c3c([nH]c12)C(CC)(CC(=O)O)OCC3 (centres undefined) | 1.01 |
| C=C(C)[C@@H]1CC[C@]2(CO)CC[C@]3(C)[C@H](CCC4[C@@]5(C)CC[C@H](O)C(C)(C)C5CC[C@]43C)C12 (some centres undefined) | 0.977 |
